Data origin, for the record: ChEMBL document CHEMBL1201862

test system: M14; experiment: NCI tumour cell line growth inhibition, 48 h
Calls of active or inactive are those of the source. Cut-off read from the data, not from the text of the source: active = GI50 up to about 1.1 µM and inactive = higher.
Output constraint: value belongs to 1.0 = active, 0.0 = inactive

Here's what some known entries look like.
# Molecule, Class Name
measured = [
    ("CC1(C)CC2=NC(SSC3=C(C#N)C(c4ccc(Br)cc4)C4=C(O)CC(C)(C)CC4=N3)=C(C#N)C(c3ccc(Br)cc3)C2=C(O)C1 (configuration not stated)", 0.0),
    ("COc1ccc(N2C(=O)C(C)SC2c2cc3cc(Br)ccc3nc2Cl)cc1 (configuration not stated)", 0.0),
    ("COC(=O)C1=COC2OC3C(C(C)O)C(=O)OC34C=CC1C24 (configuration not stated)", 0.0),
    ("Cc1nnc(S(=O)(=O)c2ccc(/N=N/c3c(N)nc(N)nc3N)cc2)s1", 0.0),
    ("COc1cc(/C=C(\\C#N)c2ccccn2)cc(Br)c1O", 0.0),
]

Query: What was the test verdict on `O=C(NC12CC3CC(CC(C3)C1)C2)C(=O)c1c[nH]c2ccc([N+](=O)[O-])cc12` ?
Result: 0.0

Query: Fill in: this test's call for O=C(NCCc1ccccn1)c1ccc2cc(C(=O)N3CC(CCl)c4ccc([N+](=O)[O-])cc43)[nH]c2c1 (configuration not stated) is ___
Result: 0.0

Query: For `CCOC(=O)CSc1nc2ccccc2c(=O)n1N` , what call appears in the results of this test?
Result: 0.0

Query: Recorded call for O=C1CSC(c2c(O)ccc3ccccc23)N1n1c(S)nnc(/C=C/c2c(O)ccc3ccccc23)c1=O (configuration not stated) ?
Result: 1.0

Query: Call for entry C[S+]([O-])c1ncc2c(n1)-c1ccccc1OC2 (configuration not stated) :
Result: 0.0

Query: Hi, do you know how CC(=O)NC(CCCCN)C(=O)NCc1ccccc1 (configuration not stated) came out in this test?
Result: 0.0

Query: Status in this test for `CN(N=O)C(=O)Nc1c[nH]c(=O)[nH]c1=O` ?
Result: 0.0

Query: Entry `CCCCn1c(C)c(C)c2c1NN=C(C#N)S2(=O)=O` : call = ?
Result: 0.0
